test: chemical genetic growth profiling, strain panel (AID 1159580);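 further: tested at 20 µM; growth read once vehicle control cultures reached saturation at 30 °C; 1 = growth at the plate median or of vehicle wells; lower values mean less growth of the strain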; conditions: S. cerevisiae deletion strains, growth OD, locus YKL085W, strain MDH1, stronger effect = lower value
Hit rate of the full screen: of about 5,500 compounds, about 2,000 (36%) were called active. Another 18% or so got no clear call; they are omitted. Some of the results follow.
measurement_kind: normalized growth
Answers are plain numbers.

Answered examples (3):
COc1cc2c3cc1Oc1cc(ccc1O)OC1c4c(cc(OC)c(O)c4Oc4ccc(cc4)CC3N(C)CC2)CCN1C (stereo not given); 0.995
CC1=C(/C=C/C(C)=C/C=C/C(C)=C/CO)C(C)(C)CCC1; 0.972
CC(=O)O[C@H]1C[C@@H](OC(C)=O)C(C)(C)C2C[C@@H](OC(C)=O)[C@]3(C)C(CC[C@@]4(C)[C@H](c5ccoc5)C(=O)[C@H]5O[C@]543)[C@]21C (stereo not given in full); 1.01

Can you give me normalized growth for all of these, one by one?
1. O=C1OCCN1/N=C\c1ccc([N+](=O)[O-])o1
2. O=C1N=C(O)CN1/N=C\c1ccc(-c2ccc([N+](=O)[O-])cc2)o1

1: 0.99; 2: 1.02

###

assay: chemical genetic growth profiling, strain panel (AID 1159580);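 further: tested at 20 µM; growth read once vehicle control cultures reached saturation at 30 °C; 1 = growth at the plate median or of vehicle wells; lower values mean less growth of the strain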; details: S. cerevisiae deletion strains, growth OD, locus YBR023C, strain chs3, stronger effect = lower value
Among all 5,500 compounds or so, about 2,000 (36%) were called active. Another 18% or so got no clear call; they are omitted. The list shows a part of the results.
measurement_kind: normalized growth
Numbers only.

Below, each entry is followed by its recorded normalized growth result.
O=C(O)c1cc(=O)c2c(OCC(O)COc3cccc4oc(C(=O)O)cc(=O)c34)cccc2o1; 0.992
CCOC(=O)C(C)(N)Cc1ccc(O)c(O)c1 (stereo not drawn); 0.981
CC(Cc1ccc(O)c(O)c1)(NN)C(=O)O (stereo not drawn); 0.976
O=C(O)P(=O)(O)O; 0.969
O=C(O)CNCP(=O)(O)O; 1.02
O=C(O)c1cc(=O)c(O)c2c(O)c(O)c(O)cc2c1; 0.549

List reported normalized growth for each of these compounds:
1. O=C(NC(=O)c1c(F)cccc1F)Nc1cc(Cl)c(OC(F)(F)C(F)C(F)(F)F)cc1Cl (stereo not drawn)
2. NCCCCN=C(N)N
3. CC1=C(/C=C/C(C)=C/C=C/C(C)=C/C(=O)O)C(C)(C)CCC1
4. CCN(CC)CCOC(=O)C(Cc1cccc2ccccc12)CC1CCCO1 (stereo not drawn)

[0.981, 1.03, 0.959, 1.01]

Hi there! I need normalized growth for each item below, if you can.
1. C[C@](N)(Cc1ccc(O)c(O)c1)C(=O)O
2. O=C(O)c1cc(O)c(O)c(O)c1
3. C[C@](N)(Cc1ccc(O)cc1)C(=O)O

0.957
1.04
0.996

###

test: chemical genetic growth profiling, strain panel (AID 1159580);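 further: tested at 20 µM; growth read once vehicle control cultures reached saturation at 30 °C; 1 = growth at the plate median or of vehicle wells; lower values mean less growth of the strain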; settings: S. cerevisiae deletion strains, growth OD, locus YOR184W, strain ser1, stronger effect = lower value
Out of some 5,500 compounds screened, about 2,000 (36%) were called active. Roughly 18% stayed inconclusive and do not appear here. This is one part of the list.
measurement_kind: normalized growth
Give bare numbers.

Here is how some molecules turned out for normalized growth.
COc1cc(C(=O)O)cc(OC)c1O; 0.992
COc1cc(C(=O)O)c(O)c2c1OCO2; 1.01

Respectfully, I request normalized growth for each entry included below.
1. COc1cc(/C=C/C(=O)O)cc(OC)c1OC
2. CC[C@@H](C(=O)O)[C@@H]1O[C@@H]([C@@H](C)[C@H](O)[C@H](C)C(=O)[C@H](CC)[C@H]2O[C@]3(C=C[C@@H](O)[C@]4(CC[C@@](C)(C5CC[C@](O)(CC)[C@H](C)O5)O4)O3)[C@H](C)C[C@@H]2C)[C@@H](C)C[C@H]1C (stereo partly drawn)
3. O=C1OCCN1/N=C\c1ccc([N+](=O)[O-])o1
4. COC(=O)[C@H]1[C@H]2C[C@@H]3c4[nH]c5cc(OC)ccc5c4CCN3C[C@H]2C[C@@H](OC(=O)c2cc(OC)c(OC)c(OC)c2)[C@@H]1OC
5. CC1CC2C(C(O)CC3(C)C2CCC3(O)C(=O)COC(=O)CCC(=O)O)C2(C)C=CC(=O)C=C12 (stereo not drawn)
6. S=c1[nH]c2ccccc2s1
7. NC(=O)N/N=C\c1ccc([N+](=O)[O-])o1

1. 1.04
2. 0.335
3. 0.862
4. 1.04
5. 1.01
6. 0.88
7. 0.989
